// values below are reported self-cleavage kobs at 2500 uM GlcN6P
B1: glmS ribozyme (parent)
chain: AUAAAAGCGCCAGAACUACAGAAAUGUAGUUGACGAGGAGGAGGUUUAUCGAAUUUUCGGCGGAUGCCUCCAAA

Variants of: B1
Experiment: self-cleavage kobs at 2500 uM GlcN6P; higher = faster cleavage; RNA array
Conditions: with glucosamine-6-phosphate
Variants at the floor of the assay were thinned out.
Measured quantity: self-cleavage kobs at 2500 uM GlcN6P

>  <Mutation string>
A53G U57G

>  <Recorded result>
3.07e-05 s⁻¹

$$$$
>  <Mutation string>
A14C U30G G41C A53G

>  <Recorded result>
< 1e-05 s⁻¹

$$$$
>  <Mutation string>
G40U A53U

>  <Recorded result>
0.00203 s⁻¹

$$$$
>  <Mutation string>
C8U A64U

>  <Recorded result>
< 1e-05 s⁻¹

$$$$
>  <Mutation string>
U54C C58U

>  <Recorded result>
4.48e-05 s⁻¹

$$$$
>  <Mutation string>
U54G U55C U56G G59C U69G

>  <Recorded result>
6.83e-05 s⁻¹

$$$$
>  <Mutation string>
G35C U65C

>  <Recorded result>
< 1e-05 s⁻¹

$$$$
>  <Mutation string>
C8G C10U A14G C34A U69G

>  <Recorded result>
< 1e-05 s⁻¹

$$$$
>  <Mutation string>
C34U G51U U54C U57G

>  <Recorded result>
< 1e-05 s⁻¹

$$$$
>  <Mutation string>
A15C U30A

>  <Recorded result>
0.0188 s⁻¹

$$$$
>  <Mutation string>
C10G G13C A14G U31C U47A

>  <Recorded result>
< 1e-05 s⁻¹

$$$$
>  <Mutation string>
G38C A48U U57C C67U

>  <Recorded result>
< 1e-05 s⁻¹

$$$$
>  <Mutation string>
G41C U56G

>  <Recorded result>
4.78e-05 s⁻¹

$$$$
>  <Mutation string>
A14C G29C

>  <Recorded result>
0.000139 s⁻¹

$$$$
>  <Mutation string>
U56A A64C

>  <Recorded result>
6.08e-05 s⁻¹

$$$$
>  <Mutation string>
C10U A12C C70A

>  <Recorded result>
< 1e-05 s⁻¹

$$$$
>  <Mutation string>
G41U G44U C67U U69G

>  <Recorded result>
< 1e-05 s⁻¹

$$$$
>  <Mutation string>
G7C G13U U31G G37C G59A G60U

>  <Recorded result>
< 1e-05 s⁻¹

$$$$
>  <Mutation string>
A15U C50G C71G

>  <Recorded result>
0.000148 s⁻¹

$$$$
>  <Mutation string>
G66U C71A

>  <Recorded result>
0.000205 s⁻¹

$$$$
>  <Mutation string>
U55A C58A

>  <Recorded result>
0.000254 s⁻¹

$$$$
>  <Mutation string>
A39C G66U

>  <Recorded result>
0.000424 s⁻¹

$$$$
